A collection of compounds and their measured CC50
Tested on: Vero
Test Details: Cytotoxicity against african green monkey Vero cells after 72 hrs by celltiter-glo assay
Format: cell-based
Settings: chlorocebus sabaeus
Measured Endpoint: CC50 (µM)

- CCN(CC)CCCC(C)Nc1cc(N)nc2nc(-c3cccs3)c(-c3cccs3)nc12 (stereo not drawn): 5.9
- CCOC(=O)Nc1cc(NCCN(CC)CC)c2nc(-c3cccs3)c(-c3cccs3)nc2n1: 6.3
- CCOC(=O)Nc1cc(NCCN(C)C)c2nc(-c3ccccc3)c(-c3ccccc3)nc2n1: 0.7
- CCN(CC)CCCC(C)Nc1cc(N)nc2nc(-c3ccco3)c(-c3ccco3)nc12 (stereo not drawn): 14
- CCOC(=O)Nc1cc(NCCN(C)C)c2nc(-c3cccs3)c(-c3cccs3)nc2n1: 1.6
- CCOC(=O)Nc1cc(NCCN(CC)CC)c2nc(-c3ccccc3)c(-c3ccccc3)nc2n1: 2.7
- CCOC(=O)Nc1cc(NCCCCN(CC)CC)c2nc(-c3ccccc3)c(-c3ccccc3)nc2n1: 1.8
- CCOC(=O)Nc1cc(NCCN(C)C)c2nc(-c3ccco3)c(-c3ccco3)nc2n1: 37
- CCOC(=O)Nc1cc(NCCN(CC)CC)c2nc(-c3ccco3)c(-c3ccco3)nc2n1: 5.5

* * *

Each record here notes measured pIC50.
Experimental Target: Cell division protein FtsZ (Mycobacterium tuberculosis)
Test Details: Inhibition of Mycobacterium tuberculosis FtsZ polymerization expressed in Escherichia coli by light scattering assay
pIC50: −log10 of the molar value.
Measured Endpoint: pIC50

* CCOC(=O)Nc1cc(NCCN(C)C)c2nc(-c3cccs3)c(-c3cccs3)nc2n1 | 4.56
* CCOC(=O)Nc1cc(NCCN(C)C)c2nc(-c3ccccc3)c(-c3ccccc3)nc2n1 | 4.26
* CCOC(=O)Nc1nc(NC(C)CCCN(CC)CC)c2nc(-c3ccccc3)c(-c3ccccc3)nc2n1 (stereo not given) | 4.42
* CCOC(=O)Nc1cc(NCCN(C)C)c2nc(-c3ccco3)c(-c3ccco3)nc2n1 | 4.47

* * *

Experimental Target: Cell division protein FtsZ (Mycobacterium tuberculosis, UniProt P9WN95)
Sequence (P9WN95 whole entry): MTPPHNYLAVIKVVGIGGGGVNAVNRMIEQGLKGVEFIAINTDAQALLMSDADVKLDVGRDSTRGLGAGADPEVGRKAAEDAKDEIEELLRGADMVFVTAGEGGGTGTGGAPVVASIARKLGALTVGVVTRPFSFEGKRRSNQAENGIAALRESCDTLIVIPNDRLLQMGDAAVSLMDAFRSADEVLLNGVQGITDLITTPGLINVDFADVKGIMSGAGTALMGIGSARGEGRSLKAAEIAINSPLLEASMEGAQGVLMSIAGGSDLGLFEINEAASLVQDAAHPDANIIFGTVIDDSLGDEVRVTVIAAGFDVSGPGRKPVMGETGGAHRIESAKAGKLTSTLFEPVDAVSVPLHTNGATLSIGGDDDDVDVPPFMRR
Exam item: assign Met to entries whose IC50 is below 30 µM and Not met to entries at or above 30 µM. Note that a value of exactly 30 µM receives Not met.

- CCOC(=O)Nc1cc(NC(C)CCCN(CC)CC)c2nc(-c3cccs3)c(-c3cccs3)nc2n1 (centres undefined): Not met
- CCN(CC)CCCC(C)Nc1cc(N)nc2nc(-c3ccco3)c(-c3ccco3)nc12 (centres undefined): Met
- CCOC(=O)Nc1cc(NC(C)CCCN(CC)CC)c2nc(-c3ccccn3)c(-c3ccccn3)nc2n1 (centres undefined): Not met
- CCOC(=O)Nc1cc(NCCCCN(CC)CC)c2nc(-c3ccco3)c(-c3ccco3)nc2n1: Met
- CCOC(=O)Nc1cc(NCCN(CC)CC)c2nc(-c3cccs3)c(-c3cccs3)nc2n1: Met
- CCOC(=O)Nc1cc(NCCN(CC)CC)c2nc(-c3ccco3)c(-c3ccco3)nc2n1: Not met
- CCOC(=O)Nc1nc(NCCCCN(CC)CC)c2c(n1)SC(c1ccccc1)C(c1ccccc1)=N2 (centres undefined): Not met
- CCOC(=O)Nc1cc(NC(C)CCCN(CC)CC)c2nc(CC)c(CC)nc2n1 (centres undefined): Not met
- CCOC(=O)Nc1nc(NC(C)CCCN(CC)CC)c2c(n1)SC(c1ccccc1)C(c1ccccc1)=N2 (centres undefined): Not met

* * *

Test system: Vero
Test Details: Cytotoxicity against african green monkey Vero cells after 72 hrs by celltiter-glo assay
Type: cell-based
Settings: chlorocebus sabaeus
Measured Endpoint: CC50

* CCOC(=O)Nc1cc(NC(C)CCCN(CC)CC)c2nc(C)c(C)nc2n1 (centres undefined) | > 40 µM
* CCOC(=O)Nc1cc(NCCCCN(CC)CC)c2nc(-c3ccco3)c(-c3ccco3)nc2n1 | > 40 µM
* CCOC(=O)Nc1cc(NC(C)CCCN(CC)CC)c2nc(-c3ccco3)c(-c3ccco3)nc2n1 (centres undefined) | > 40 µM
* CCOC(=O)Nc1cc(NC(C)CCCN(CC)CC)c2nc(-c3cccs3)c(-c3cccs3)nc2n1 (centres undefined) | > 40 µM
* CCOC(=O)Nc1nc(NC(C)CCCN(CC)CC)c2c(n1)SC(c1ccccc1)C(c1ccccc1)=N2 (centres undefined) | > 40 µM
* CCOC(=O)Nc1cc(NC(C)CCCN(CC)CC)c2nc(-c3ccccn3)c(-c3ccccn3)nc2n1 (centres undefined) | > 40 µM
* CCOC(=O)Nc1nc(NCCCCN(CC)CC)c2c(n1)SC(c1ccccc1)C(c1ccccc1)=N2 (centres undefined) | > 40 µM
* CCOC(=O)Nc1cc(NCCCCN(CC)CC)c2nc(-c3cccs3)c(-c3cccs3)nc2n1 | > 40 µM
* CCOC(=O)Nc1cc(NC(C)CCCN(CC)CC)c2nc(CC)c(CC)nc2n1 (centres undefined) | > 40 µM
